Source: PubChem BioAssay

biological target: Calmodulin-1 (Homo sapiens) (UniProt P0DP23); experiment: CALM1 binders on microarrays, EGTA buffer, profiling panel, biochemical, small-molecule microarray, Cy5-labelled CALM1 (AID 1111); conditions: Cy5-CALM1 binding fluorescence, higher = more signal;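 note: labelled calmodulin applied in Tris saline Tween buffer holding calcium plus EGTA and DTT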
What composite z-score was measured for each of the following?
Lab note: jot the number down without any unit.

Query block: Recorded composite z-score for `CCCC[C@@H]1C[C@H]1[C@@H](NC(=O)c1cccs1)c1ccc(C(F)(F)F)cc1` with Calmodulin-1 (Homo sapiens) (UniProt P0DP23), please?
Result block: -0.501

Query block: Recorded composite z-score for `CCOC(=O)C[C@H]1[C@H](OC(=O)c2cc3ccccc3oc2=O)[C@@H](NC(=O)c2ccc(-c3ccccc3)cc2)c2cc(OCCCO)ccc2N1C(=O)c1ccccc1` with Calmodulin-1 (Homo sapiens) (UniProt P0DP23), please?
Result block: 0.536

Query block: Recorded composite z-score for CCOc1cc(C(O)C2C=CC3C(=O)N(C)C(=O)C3N2Nc2ccccc2)ccc1O (stereo unspecified) with Calmodulin-1 (Homo sapiens) (UniProt P0DP23), please?
Result block: 0.796

Query block: Recorded composite z-score for `COc1ccc(C#Cc2ccc3c(c2)[C@]2(C(=O)N3)[C@H](c3ccc(O)cc3)N3[C@H](c4ccccc4)[C@H](c4ccccc4)OC(=O)[C@H]3[C@@H]2C(=O)O)cc1` with Calmodulin-1 (Homo sapiens) (UniProt P0DP23), please?
Result block: 0.69

Query block: Recorded composite z-score for `COCCCNC(=O)[C@@]1(Cc2ccccc2N=[N+]=[N-])COC(c2ccc(OCCCO)cc2)=N1` with Calmodulin-1 (Homo sapiens) (UniProt P0DP23), please?
Result block: 1.43

Query block: Recorded composite z-score for `CC1=C([C@H](O)CCc2ccccc2)[C@H](CO)[C@@H]2C(=O)N(C)C(=O)[C@@H]2C1` with Calmodulin-1 (Homo sapiens) (UniProt P0DP23), please?
Result block: 0.489

Query block: Recorded composite z-score for CC(c1ccccc1)C(O)C1C=CC2C(=O)N(c3ccccc3)C(=O)C2N1Nc1ccc([N+](=O)[O-])cc1 (stereo unspecified) with Calmodulin-1 (Homo sapiens) (UniProt P0DP23), please?
Result block: 0.93

Query block: Recorded composite z-score for Cc1cc(C)c(C(O)C2C=CC3C(=O)N(c4ccccc4)C(=O)C3N2Nc2ccc(C(C)C)cc2)c(C)c1 (stereo unspecified) with Calmodulin-1 (Homo sapiens) (UniProt P0DP23), please?
Result block: 2.15

Query block: Recorded composite z-score for `CC(C)OC(=O)C=C1C[C@@H](c2ccc(C(F)(F)F)cc2)O[C@@H](c2ccc(C(F)(F)F)cc2)O1` with Calmodulin-1 (Homo sapiens) (UniProt P0DP23), please?
Result block: 0.808

Query block: Recorded composite z-score for OCCCC1=CC(c2ccc(CN3CCCC3)cc2)N(Cc2sc3ccccc3c2Cl)CC1 (stereo unspecified) with Calmodulin-1 (Homo sapiens) (UniProt P0DP23), please?
Result block: 0.325

Query block: Recorded composite z-score for O=C1NC(=O)C2C1C=CC(C(O)c1cccc3ccccc13)N2Nc1ccc(Cl)cc1Cl (stereo unspecified) with Calmodulin-1 (Homo sapiens) (UniProt P0DP23), please?
Result block: 1.49

Query block: Recorded composite z-score for `C=CC[C@]1(C(=O)NCCN2CCOCC2)N=C(c2ccc(OCCCO)cc2)O[C@H]1c1ccccc1CN=[N+]=[N-]` with Calmodulin-1 (Homo sapiens) (UniProt P0DP23), please?
Result block: 0.21

Query block: Recorded composite z-score for `COC(=O)[C@@]1(Cc2ccc(OC)cc2)[C@@H]2C(=CC(=O)[C@H]2CC(=O)C(=O)N(C)C)CN1C(=O)c1ccccc1` with Calmodulin-1 (Homo sapiens) (UniProt P0DP23), please?
Result block: 2.21

Query block: Recorded composite z-score for `CC(C)[Si](C#CCCCC#N)(O[C@H](c1ccccc1)c1cn([C@H](CO)Cc2ccccc2)nn1)C(C)C` with Calmodulin-1 (Homo sapiens) (UniProt P0DP23), please?
Result block: 1.11

Query block: Recorded composite z-score for `COc1ccc([Si](C)(C)[C@H]2[C@H](CC(=O)N(CCO)Cc3ccccc3)O[C@@]3(C(=O)N(Cc4cccc(N5CCOC5=O)c4)c4ccccc43)[C@@H]2C)cc1` with Calmodulin-1 (Homo sapiens) (UniProt P0DP23), please?
Result block: 0.107

Query block: Recorded composite z-score for O=C1OCC=C[C@H]2OC34C=CCN(Cn5nnc6ccccc65)C(=O)[C@H]3N(CCCO)C(=O)[C@@H]4[C@@H]12 (stereo partly specified) with Calmodulin-1 (Homo sapiens) (UniProt P0DP23), please?
Result block: -0.0941

###

assay: inhibitors of hydroxyurea-induced Chk1 phosphorylation, primary screen, imaging, HeLa, phospho-Chk1 antibody, percent positive cells (AID 1186); details: hydroxyurea-induced phospho-Chk1 immunofluorescence imaging, higher = more signal
Active and inactive are the calls of the source. How the calls were made is not given here.
EXPERIMENTAL_ENDPOINT: z-score

Query block: Recorded z-score of `COC(=O)[C@@]1(Cc2ccccc2N=[N+]=[N-])N=C(c2ccc(OCCCO)cc2)O[C@H]1c1ccccc1N=[N+]=[N-]` , please.
Result block: -0.362 (inactive)

Query block: Recorded z-score of `[N-]=[N+]=NCc1ccccc1[C@H]1OC(c2ccc(OCCCO)cc2)=N[C@@]1(CCS(=O)(=O)c1ccccc1)C(=O)N1CCCCC1` , please.
Result block: -0.0013 (inactive)

Query block: Recorded z-score of `CCCNC(=O)[C@@H]1c2ccccc2C(=O)N(C(C)C)[C@H]1c1ccc(CO)cc1` , please.
Result block: -0.247 (inactive)

Query block: Recorded z-score of CN1C(=O)C2C=CC(C(O)c3ccccn3)N(N(c3ccccc3)c3ccccc3)C2C1=O (centres undefined) , please.
Result block: 0.46 (inactive)

###

test system: XIP peptide (Xip251-270) binding; test: small-molecule binders of XIP peptide, primary screen, biochemical, small-molecule microarray, fluorescence 635/667 nm, 0.1 µg/mL protein (AID 1182); settings: fluorescent protein binding, 635 nm, higher = more signal, called active from +8 up or from −8 down
EXPERIMENTAL_ENDPOINT: composite z-score
Lab note: jot the number down without any unit.

Query block: Recorded composite z-score of `CCCC[C@@H]1C[C@H]1[C@@H](NC(=O)c1ccccc1)c1ccc(C(F)(F)F)cc1` , please.
Result block: 2.28

Query block: Recorded composite z-score of `COCCCNC(=O)[C@]1(CCS(=O)(=O)c2ccccc2)N=C(c2ccc(OCCCO)cc2)O[C@@H]1c1ccccc1N=[N+]=[N-]` , please.
Result block: 1.26

Query block: Recorded composite z-score of C=CCC(OC(C)=O)[C@@H]1[C@@H](N(Cc2cc3ccccc3o2)C(=O)c2ccc(-c3ccccc3)cc2)c2cc(OCCCO)ccc2N1C(=O)c1ccc2ccccc2c1 (stereo partly specified) , please.
Result block: -0.252

Query block: Recorded composite z-score of `CN(C)C(=O)[C@@]1(CCS(=O)(=O)c2ccccc2)N=C(c2ccc(OCCCO)cc2)O[C@H]1c1ccccc1` , please.
Result block: 0.77

Query block: Recorded composite z-score of C=CCC(OC(C)=O)[C@@H]1[C@@H](N(Cc2ccc(-c3ccccc3)cc2)C(=O)Cc2ccc(F)cc2)c2cc(OCCCO)ccc2N1C(=O)Cc1ccc(OC)cc1 (stereo partly specified) , please.
Result block: 0.0187

Query block: Recorded composite z-score of `C=CCOC(=O)[C@H]1[C@@H]2C(=O)O[C@@H](c3ccccc3)[C@@H](c3ccccc3)N2[C@@H](c2ccc(OCCOC(=O)[C@H]3C[C@H]4C(=O)N[C@@H](CCCCNC(C)=O)C(=O)N4[C@H]3c3ccc(O)cc3)cc2)[C@]12C(=O)Nc1ccccc12` , please.
Result block: 2.69

###

test: modulators of HCV replicon luciferase signal, primary screen, HCV replication inhibitor project, Huh7 cells, luciferase reporter (AID 1109); details: 48 h, higher = more signal;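 note: huh7 hepatoma cells harbouring a luciferase neomycin HCV replicon reporter; luciferase luminescence as measure of HCV replicon replication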
What z-score was measured for each of the following?
Lab note: jot the number down without any unit.

Query block: Recorded z-score of `O=C1O[C@H](c2ccccc2)[C@H](c2ccccc2)N2[C@H]1[C@@H](C(=O)O)[C@]1(C(=O)Nc3ccc(C#CC4=CCCCC4)cc31)[C@H]2c1ccc(O)cc1` , please.
Result block: -0.955

Query block: Recorded z-score of `COCCOC(=O)N1C(=O)[C@@]2(c3cc(C#CC4=CCCCC4)ccc31)[C@H](c1ccccc1OCCO)N1[C@H](c3ccccc3)[C@H](c3ccccc3)OC(=O)[C@H]1[C@@H]2C(=O)N1CCCCCCC1` , please.
Result block: -2.94

Query block: Recorded z-score of `O=C1O[C@@H](c2ccccc2)[C@@H](c2ccccc2)N2[C@@H](c3ccc(OCCO)cc3)[C@]3(C(=O)Nc4ccccc43)[C@@H](C(=O)O)[C@H]12` , please.
Result block: -1.47

###

molecular target: Torsin-1A-interacting protein 2 (Homo sapiens) (UniProt Q8NFQ8); assay: LULL1 binders on small-molecule microarray, primary screen, cell lysate, human LULL1 lysate, 635/667 nm fluorescence (AID 1092); details: hLULL1 lysate binding, 635 nm fluorescence, higher = more signal;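 note: probe is lysate of COS7 cells overexpressing human LULL1; score merges per-feature 667 nm fluorescence with signal-to-noise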
Sequence (Q8NFQ8 whole entry, looked up): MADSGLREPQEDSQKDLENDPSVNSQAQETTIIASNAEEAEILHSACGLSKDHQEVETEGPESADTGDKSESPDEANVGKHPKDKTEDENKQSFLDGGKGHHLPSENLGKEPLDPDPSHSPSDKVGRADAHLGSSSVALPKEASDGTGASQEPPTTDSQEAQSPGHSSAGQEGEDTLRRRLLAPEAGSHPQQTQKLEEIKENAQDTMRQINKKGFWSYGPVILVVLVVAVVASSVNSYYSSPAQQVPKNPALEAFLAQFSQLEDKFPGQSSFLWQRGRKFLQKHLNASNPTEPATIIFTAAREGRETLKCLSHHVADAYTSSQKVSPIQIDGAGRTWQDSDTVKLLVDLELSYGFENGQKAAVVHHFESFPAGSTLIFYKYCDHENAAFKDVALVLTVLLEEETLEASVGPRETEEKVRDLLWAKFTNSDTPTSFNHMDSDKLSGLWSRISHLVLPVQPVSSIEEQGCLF
EXPERIMENTAL_ENDPOINT: composite z-score
Lab note: jot the number down without any unit.

Query block: Recorded composite z-score for `COc1ccc(CCNC(=O)[C@@]2(Sc3ccc(C)cc3)CC(=O)N(C3Cc4ccccc4C3)[C@@H]2c2ccc(CO)cc2)cc1` with Torsin-1A-interacting protein 2 (Homo sapiens) (UniProt Q8NFQ8), please?
Result block: 1.88

Query block: Recorded composite z-score for `C=C(CCCC)/C(=C/C[C@@H](OC(=O)c1ccncc1)c1ccccc1OCCO)c1cnc2ccccc2c1` with Torsin-1A-interacting protein 2 (Homo sapiens) (UniProt Q8NFQ8), please?
Result block: 1.26

Query block: Recorded composite z-score for `O=C(NCC(F)(F)F)[C@@H]1c2ccccc2C(=O)N(Cc2ccc(OC(F)(F)F)cc2)[C@H]1c1ccc(CO)cc1` with Torsin-1A-interacting protein 2 (Homo sapiens) (UniProt Q8NFQ8), please?
Result block: 1.81

Query block: Recorded composite z-score for `COC(=O)c1c(CC[C@@H](CO)NC(=O)N[C@H](Cn2cc(C3(O)CCCCC3)nn2)C(C)C)oc(C(C)=O)c1C(=O)OC` with Torsin-1A-interacting protein 2 (Homo sapiens) (UniProt Q8NFQ8), please?
Result block: 1.12

Query block: Recorded composite z-score for `C=CC[C@]1(C(=O)NCCN2CCOCC2)N=C(c2ccc(OCCCO)cc2)O[C@H]1c1ccccc1CN=[N+]=[N-]` with Torsin-1A-interacting protein 2 (Homo sapiens) (UniProt Q8NFQ8), please?
Result block: 1.64

Query block: Recorded composite z-score for `COCCOC(=O)N1C(=O)[C@@]2(c3cc(C#CC4=CCCCC4)ccc31)[C@H](c1ccccc1OCCO)N1[C@H](c3ccccc3)[C@H](c3ccccc3)OC(=O)[C@H]1[C@@H]2C(=O)N1CCCCCCC1` with Torsin-1A-interacting protein 2 (Homo sapiens) (UniProt Q8NFQ8), please?
Result block: 2.9

Query block: Recorded composite z-score for `COCCOC(=O)N1C(=O)[C@@]2(c3cc(C#CC4(O)CCCCCC4)ccc31)[C@H](c1ccc(O)cc1)N1[C@H](c3ccccc3)[C@H](c3ccccc3)OC(=O)[C@H]1[C@@H]2C(=O)NC[C@H](O)c1ccccc1` with Torsin-1A-interacting protein 2 (Homo sapiens) (UniProt Q8NFQ8), please?
Result block: 1.18
